target: N-type calcium channel (α1B (Cav2.2), β3 and α2δ subunits) (Homo sapiens, UniProt Q00975); experiment: Functional Assay: Antagonism of N-Type Calcium Channel (FDSS calcium mobilization, KCl depolarization); assay type: cell-based; conditions: 0.33 μM
Sequence (Q00975 whole entry): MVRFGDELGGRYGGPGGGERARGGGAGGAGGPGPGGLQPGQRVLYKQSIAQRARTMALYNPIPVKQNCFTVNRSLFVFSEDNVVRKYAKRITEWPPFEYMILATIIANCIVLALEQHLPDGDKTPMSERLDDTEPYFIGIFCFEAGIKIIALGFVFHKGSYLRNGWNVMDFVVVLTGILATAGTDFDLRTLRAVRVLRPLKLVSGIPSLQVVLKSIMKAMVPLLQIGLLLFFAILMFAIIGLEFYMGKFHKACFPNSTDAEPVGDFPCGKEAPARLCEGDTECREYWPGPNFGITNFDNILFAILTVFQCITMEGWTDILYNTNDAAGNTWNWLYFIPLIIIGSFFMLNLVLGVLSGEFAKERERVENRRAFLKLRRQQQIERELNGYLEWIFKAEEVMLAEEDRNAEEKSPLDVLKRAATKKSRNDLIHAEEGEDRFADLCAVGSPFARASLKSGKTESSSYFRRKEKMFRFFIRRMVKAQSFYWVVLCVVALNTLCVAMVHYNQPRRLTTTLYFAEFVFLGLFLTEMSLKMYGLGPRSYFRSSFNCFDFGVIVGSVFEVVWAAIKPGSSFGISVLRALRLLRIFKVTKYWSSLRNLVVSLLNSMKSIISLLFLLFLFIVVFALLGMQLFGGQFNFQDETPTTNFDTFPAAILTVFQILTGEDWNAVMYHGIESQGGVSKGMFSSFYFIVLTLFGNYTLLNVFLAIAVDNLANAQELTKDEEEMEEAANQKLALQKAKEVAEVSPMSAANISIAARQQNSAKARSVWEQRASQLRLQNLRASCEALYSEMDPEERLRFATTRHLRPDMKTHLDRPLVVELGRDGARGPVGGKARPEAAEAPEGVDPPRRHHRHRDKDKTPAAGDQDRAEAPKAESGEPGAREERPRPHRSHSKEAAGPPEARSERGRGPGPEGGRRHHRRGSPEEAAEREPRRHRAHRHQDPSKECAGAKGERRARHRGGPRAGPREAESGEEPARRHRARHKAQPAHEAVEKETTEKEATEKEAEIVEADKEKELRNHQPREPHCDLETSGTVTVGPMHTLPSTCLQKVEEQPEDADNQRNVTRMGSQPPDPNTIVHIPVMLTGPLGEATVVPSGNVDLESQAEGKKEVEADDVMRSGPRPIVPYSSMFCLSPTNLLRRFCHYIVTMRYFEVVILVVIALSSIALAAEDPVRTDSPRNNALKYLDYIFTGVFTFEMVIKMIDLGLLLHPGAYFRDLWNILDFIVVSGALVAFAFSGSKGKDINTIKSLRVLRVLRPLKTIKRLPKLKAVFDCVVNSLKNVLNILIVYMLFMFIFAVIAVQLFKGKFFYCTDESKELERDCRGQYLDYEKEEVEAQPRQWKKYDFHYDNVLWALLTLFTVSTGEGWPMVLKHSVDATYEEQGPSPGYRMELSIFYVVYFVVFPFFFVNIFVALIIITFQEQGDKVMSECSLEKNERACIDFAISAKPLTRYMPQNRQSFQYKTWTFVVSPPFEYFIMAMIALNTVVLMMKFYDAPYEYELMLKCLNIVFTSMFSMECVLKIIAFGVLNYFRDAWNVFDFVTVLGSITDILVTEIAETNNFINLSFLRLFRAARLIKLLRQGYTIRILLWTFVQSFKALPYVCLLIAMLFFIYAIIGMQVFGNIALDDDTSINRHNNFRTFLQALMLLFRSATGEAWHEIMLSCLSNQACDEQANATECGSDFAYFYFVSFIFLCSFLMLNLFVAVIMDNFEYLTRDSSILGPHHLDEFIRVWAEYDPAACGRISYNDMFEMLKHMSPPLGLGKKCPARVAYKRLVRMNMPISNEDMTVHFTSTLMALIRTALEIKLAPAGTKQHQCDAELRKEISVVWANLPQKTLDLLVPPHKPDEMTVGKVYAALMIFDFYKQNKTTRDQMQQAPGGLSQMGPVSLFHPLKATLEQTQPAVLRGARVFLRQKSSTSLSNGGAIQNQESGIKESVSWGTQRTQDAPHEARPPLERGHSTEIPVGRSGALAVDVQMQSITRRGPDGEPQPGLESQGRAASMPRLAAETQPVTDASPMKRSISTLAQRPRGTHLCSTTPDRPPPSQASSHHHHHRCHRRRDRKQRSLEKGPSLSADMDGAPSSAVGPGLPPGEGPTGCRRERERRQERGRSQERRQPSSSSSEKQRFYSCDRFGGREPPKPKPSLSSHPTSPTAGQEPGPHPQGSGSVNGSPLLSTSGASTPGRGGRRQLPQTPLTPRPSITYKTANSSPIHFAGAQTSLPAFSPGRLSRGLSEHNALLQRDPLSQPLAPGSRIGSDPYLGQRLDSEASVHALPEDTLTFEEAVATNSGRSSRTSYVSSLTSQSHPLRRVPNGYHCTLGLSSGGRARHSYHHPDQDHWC
Sequence (P54284 whole entry partner): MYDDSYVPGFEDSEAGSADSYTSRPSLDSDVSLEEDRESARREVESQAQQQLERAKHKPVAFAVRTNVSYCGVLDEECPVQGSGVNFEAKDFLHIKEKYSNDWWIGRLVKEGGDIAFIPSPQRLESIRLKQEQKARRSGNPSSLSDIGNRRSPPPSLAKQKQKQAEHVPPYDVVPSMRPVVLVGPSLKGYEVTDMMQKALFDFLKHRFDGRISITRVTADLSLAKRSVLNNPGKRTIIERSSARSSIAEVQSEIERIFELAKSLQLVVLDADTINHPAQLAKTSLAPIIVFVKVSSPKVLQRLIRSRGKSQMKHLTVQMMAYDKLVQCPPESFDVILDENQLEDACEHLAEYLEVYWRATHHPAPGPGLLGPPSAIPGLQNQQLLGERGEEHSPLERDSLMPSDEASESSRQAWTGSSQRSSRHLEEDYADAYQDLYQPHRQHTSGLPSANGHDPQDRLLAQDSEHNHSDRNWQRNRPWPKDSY
Sequence (P54289 25-946 partner limits assumed): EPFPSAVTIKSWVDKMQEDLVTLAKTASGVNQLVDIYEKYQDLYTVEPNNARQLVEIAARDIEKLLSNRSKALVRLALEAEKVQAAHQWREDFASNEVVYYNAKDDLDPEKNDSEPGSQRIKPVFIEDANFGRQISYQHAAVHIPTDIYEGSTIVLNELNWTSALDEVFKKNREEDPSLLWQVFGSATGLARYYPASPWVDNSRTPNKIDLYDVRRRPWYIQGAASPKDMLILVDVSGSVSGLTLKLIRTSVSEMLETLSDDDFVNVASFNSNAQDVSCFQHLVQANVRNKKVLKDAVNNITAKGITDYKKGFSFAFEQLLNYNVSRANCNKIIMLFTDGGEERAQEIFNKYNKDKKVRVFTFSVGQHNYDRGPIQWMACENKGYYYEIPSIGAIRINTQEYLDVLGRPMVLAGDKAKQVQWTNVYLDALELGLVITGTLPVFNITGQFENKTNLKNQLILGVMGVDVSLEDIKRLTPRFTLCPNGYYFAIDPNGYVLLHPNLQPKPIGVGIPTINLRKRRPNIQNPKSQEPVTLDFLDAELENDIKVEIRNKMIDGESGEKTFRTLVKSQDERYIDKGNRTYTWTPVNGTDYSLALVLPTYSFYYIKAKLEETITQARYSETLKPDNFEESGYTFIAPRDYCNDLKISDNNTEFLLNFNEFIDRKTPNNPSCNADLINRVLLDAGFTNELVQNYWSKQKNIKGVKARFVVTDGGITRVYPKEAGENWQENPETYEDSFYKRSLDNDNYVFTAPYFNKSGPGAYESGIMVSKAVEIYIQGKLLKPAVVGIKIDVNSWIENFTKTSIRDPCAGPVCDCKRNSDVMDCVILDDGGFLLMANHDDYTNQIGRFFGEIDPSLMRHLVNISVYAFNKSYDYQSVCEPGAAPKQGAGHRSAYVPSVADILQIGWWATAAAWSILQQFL
Sequence (P54289 947-1103 partner limits assumed): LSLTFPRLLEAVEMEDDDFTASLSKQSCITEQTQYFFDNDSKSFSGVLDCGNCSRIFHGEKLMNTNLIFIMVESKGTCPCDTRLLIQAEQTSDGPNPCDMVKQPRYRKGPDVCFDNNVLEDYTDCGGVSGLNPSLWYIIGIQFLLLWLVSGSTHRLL
Listed here: items and their measured inhibition at 0.33 µM.
Only the number, expressed in %, is required.

Examples with their reported inhibition at 0.33 µM follow.
• COc1ccccc1-n1nc2c(c1-c1ccc(Cl)cc1)CC(C#N)C2 (stereo not drawn) = 83
• COc1ccccc1-n1nc2c(c1-c1ccc(C)nc1)CC1(C2)OC(C)(C)C(C)(C)O1 = 84
• COc1ccccc1-n1nc2c(c1-c1ccc(Cl)cc1)CC(C1CNc3ccccc3C1)C2 (stereo not drawn) = 59
• COc1ccccc1-n1nc2c(c1-c1ccc(Cl)cc1)C[C@H](OCC1CCOCC1)C2 = 82
• CCOc1ccccc1-n1nc2c(c1-c1ccc(Cl)cc1)CC(n1ccnn1)C2 (stereo not drawn) = 91
• CN(C)S(=O)(=O)N(C)[C@@H]1Cc2nn(-c3cccc4c3OCC4)c(-c3ccc(Cl)cc3)c2C1 = 95
• COc1ccccc1-n1nc2c(c1-c1ccc(OC(C)C)nc1)C[C@@H](N(C)S(=O)(=O)N(C)C)C2 = 99
• CCOc1ccccc1-n1nc2c(c1-c1ccc(Cl)cc1)CC(n1ccnc1)C2 (stereo not drawn) = 81

Short answer for COc1ccccc1-n1nc2c(c1-c1ccc(Cl)cc1)CC(c1ccc(C(C)C)nc1Cl)C2 (stereo not drawn) : inhibition at 0.33 µM was 53

* * *

Listed here: items and their measured inhibition at 0.1 µM.
target: N-type calcium channel (Homo sapiens); test: Automated Electrophysiology Assay (QPatch-HT whole-cell patch clamp; low- and high-frequency stimulation); format: cell-based; conditions: 0.1 μM; high-frequency stimulation (15th pulse); read-out: QPatch at High Frequency % Inhibition
Sequence (Q00975 whole entry): as the sequence (Q00975 whole entry) above
Sequence (P54284 whole entry partner): as the sequence (P54284 whole entry partner) above
Sequence (P54289 25-946 partner limits assumed): as the sequence (P54289 25-946 partner limits assumed) above
Sequence (P54289 947-1103 partner limits assumed): as the sequence (P54289 947-1103 partner limits assumed) above

Examples with their reported inhibition at 0.1 µM follow.
• CN(C)S(=O)(=O)N(C)[C@@H]1Cc2nn(-c3cccc4c3OCC4)c(-c3ccc(Cl)cc3)c2C1 [Compound 50] = 41%
• COc1ccccc1-n1nc2c(c1-c1ccc(C#N)cc1)CC1(C2)OCC(C)(C)CO1 [Compound 91] = 39%

Alright, here's another molecule for you.
Short answer for COc1ccc(-c2c3c(nn2-c2ccccc2OC)CC2(C3)OCC(C)(C)CO2)cn1 [Compound 96] : inhibition at 0.1 µM was 20%

* * *

target: N-type calcium channel (α1B (Cav2.2), β3 and α2δ subunits) (Homo sapiens, UniProt Q00975); assay: Functional Assay: Antagonism of N-Type Calcium Channel (FDSS calcium mobilization, KCl depolarization); type: cell-based; details: HEK cell line, 50 mM KCl depolarization, six-point concentration-response; read-out: FDSS IC50
Listed here: items and their measured log10 of IC50.
In plain terms, each number is the log10 of measured IC50 in nM.

Examples with their reported log10 of IC50 follow.
* COc1ccccc1-n1nc2c(c1-c1ccc(Cl)cc1)CC1(C2)O[C@H]2CCC[C@H]2O1 (some centres unmarked) [Compound 115] | 1.04
* CCc1ccccc1-n1nc2c(c1-c1ccc(Cl)cc1)CC(CNC(=O)C(F)(F)F)C2 (centres unmarked) [Compound 19] | 2.11
* COc1ccccc1-n1nc2c(c1-c1ccc(Cl)cc1)CC(C(N)=O)C2 (centres unmarked) [Compound 6] | 2.69
* COc1ccccc1-n1nc2c(c1-c1ccc(Cl)cc1)CC(N1CC(C)OC(C)C1)C2 (centres unmarked) [Compound 116] | 1.68
* COc1ccccc1-n1nc2c(c1-c1ccc(Cl)cc1)C[C@H](OCC1CCCC1)C2 [Compound 83] | 1.69

Alright, here's another compound for you.
Short answer for COc1ccccc1-n1nc2c(c1-c1ccc(Cl)cc1)CC(CCOC(=O)N(C)C)C2 (centres unmarked) [Compound 3] : log10 of IC50 was 1.41
